conditions: 298.15 K; 101.33 kPa; Liquid; Linear variable-path acoustic interferometer
Answer each item with its documented speed of sound.
The reply should be a number in m/s, with the unit left off.

stdin: Provide only the value of recorded speed of sound for `Cc1ccccc1N`
stdout: 1602

stdin: Provide only the value of recorded speed of sound for `CNc1ccccc1`
stdout: 1572

stdin: Provide only the value of recorded speed of sound for `Nc1ccccc1`
stdout: 1635

stdin: Provide only the value of recorded speed of sound for `C1COCO1`
stdout: 1388

----------
conditions: 298.15 K; 101.33 kPa; Liquid; Pycnometric method
Numbers after ± are expanded uncertainties.
Endpoint: mass density
Please don't drop the unit; write it after the number.

stdin: Provide only the value of recorded mass density for C1COCO1 [1,3-dioxolane]
stdout: 1047.2 ± 1.1 kg/m3

stdin: Provide only the value of recorded mass density for CNc1ccccc1 [N-methylaniline]
stdout: 982.4 ± 1.6 kg/m3

stdin: Provide only the value of recorded mass density for Cc1ccccc1N [2-methylaniline]
stdout: 994.2 ± 1 kg/m3

stdin: Provide only the value of recorded mass density for Nc1ccccc1 [aniline]
stdout: 1017.2 ± 1 kg/m3
